Data origin: PubChem BioAssay (NCI)

# System: SW-620 colon
# Test: NCI-60 one-dose screen, 48 h (100 = growth as untreated, 0 = no growth, -100 = all killed)
# Protocol Conditions: 10 µM unless noted
Compounds without any hit were thinned out: in the full panel of roughly 83,000, 20% have a hit. The source made the active and inactive calls. How the source made its calls: active means growth percent below 10; inactive means the rest.
Attribute Measured: growth

Below, 5 compounds whose answers are already recorded.
{"columns": ["Compound", "Meas Value"],
 "data": [
  ["Nc1ccccc1NS(=O)(=O)c1ccc(Cl)cc1", "99.3% (inactive)"],
  ["CSc1nc(-c2cccs2)c2c(N)[nH]nc2n1", "119% (inactive)"],
  ["C/C(=N\\NC(=O)c1ccncc1)c1ccc(N)cc1", "101% (inactive)"],
  ["O=[N+]([O-])c1cccc(CN(Cc2cccc([N+](=O)[O-])c2O)c2ccccc2)c1O", "56.9% (inactive)"],
  ["Oc1ccccc1-c1nc2c3ccccc3c3ccccc3c2o1", "68.4% (inactive)"]
]}

Batch request: growth for each of the following compounds.
1. C=CCn1c(SCC(=O)Nc2ccc(C(=O)/C=C/c3ccc(Cl)cc3)cc2)nnc1-c1cc(OC)c(OC)c(OC)c1
2. Cc1cnc(-c2ccc(-c3ccc(NC(=O)Nc4c(F)cc(F)cc4F)cc3F)c3c2C(=O)NC3)[nH]1
3. CC(C)(C)c1ccc(O)c(Cc2cc(C(C)(C)C)ccc2O)c1
4. CCCNc1nc(C)[nH]c(=O)c1S
5. COc1cc2c(Nc3ccc(NC(=O)Nc4ccc(Cl)c(C(F)(F)F)c4)c(Cl)c3)ncnc2cc1OCCCN1CCN(C)CC1
6. O=C(Nc1cc(=O)[nH]c(=O)[nH]1)C(Cl)Cl
7. COc1ccc(-c2cc(-c3nnc(SCC(=O)Nc4ccc(/C(C)=N\O)cc4)o3)c3ccccc3n2)cc1
8. COc1ccc(-c2cc(-c3nnc(SCC(=O)Nc4ccc(/C(C)=N\O)cc4)n3-c3ccccc3)c3cc(OC)ccc3n2)cc1

Response:
1: 98.2% (inactive); 2: 10.1% (inactive); 3: 105% (inactive); 4: 121% (inactive); 5: -85.4% (active); 6: 100% (inactive); 7: 105% (inactive); 8: 82.1% (inactive)

Batch request: growth for each of the following compounds.
1. N#Cc1c(-c2ccc(F)cc2)nc(N/N=C/c2c[nH]c3ccccc23)nc1N1CCOCC1
2. O=C(O)C(C(=O)O)c1cccc2ccccc12
3. Nc1n[nH]c2cccc(C#Cc3cccc(NC(=O)c4cc(N5CCOCC5)cc(C(F)(F)F)c4)c3)c12
4. Cc1ccccc1NC(=O)c1sc2nc(C)c(C(C)O)cc2c1N (centres undefined)

Response:
["7.62% (active)", "99.1% (inactive)", "46.6% (inactive)", "36.8% (inactive)"]

====

# System: A549/ATCC NSCLC
# Test: NCI-60 one-dose screen, 48 h
# Protocol Conditions: 10 µM unless noted
# Experimental: Growth inhibition of the A549/ATCC human Non-Small Cell Lung tumor cell line is measured as a screen for anti-cancer activity. Cells are grown in 96 well plates and exposed to the test compound for 48 hours. Compounds are tested at a single concentration, which is 10^-5 M for most compounds. The reported endpoint is percent growth (GI% or GIPRCNT), where numbers from 0 - 100% represent growth inhibition, and numbers from -100% - 0 represent cell death. […]
This is part of a sample that, as a whole, favours compounds with a hit. Of some 83,000 tested, about 20% had one in any assay. The source made the active and inactive calls. Rule for the calls: active = growth percent below 10; inactive = the rest.
The categories you may choose from are active, inactive

Solved entries (count: 5):
{"columns": ["Compound", "Class Name"],
 "data": [
  ["OCCNc1nc(NCCO)nc(Nc2ccc(C3=NN(c4ccc(Cl)cc4)C(c4ccc(Cl)cc4)C3)cc2)n1 (stereo not given)", "inactive"],
  ["CCOC(=O)c1c(C)nc2c(c1N)CC(=O)N2CCc1ccccc1", "inactive"],
  ["OCCNc1nc(NCCO)nc(Nc2ccc(C3=NN(c4cc(Cl)cc(Cl)c4)C(c4ccccc4)C3)cc2)n1 (stereo not given)", "inactive"],
  ["COc1ccc(-c2cc(-c3nnc(SCC(=O)Nc4ccc(C(C)=O)cc4)o3)c3ccccc3n2)cc1", "inactive"],
  ["O=C(Nc1nccs1)c1noc2ccccc12", "inactive"]
]}

Prompt: Outcome logged for O=C(Nc1cc(=O)[nH]c(=O)[nH]1)C(Cl)Cl in this assay:
Response: inactive
